system: SUP-B15; assay: Antiproliferative activity against human SUP-B15 cells after 72 hrs by CelTiter-Glo assay; format: functional, cell-based; details: SUP-B15, 72 h
outcome measure: EC50 (µM)
Report only the number, with the unit µM understood.

Can you look up EC50 on SUP-B15 for COc1ccc(-c2cc(=O)c3c(OC)cc(OC)cc3n2C)cc1 ?
28

Can you look up EC50 on SUP-B15 for CCOC(=O)[C@H](Cc1ccccc1)NC(=O)Nc1ccc2[nH]c(C(=O)OC)cc(=O)c2c1 ?
16.5

Can you look up EC50 on SUP-B15 for O=c1cc(-c2ccc(O)cc2)oc2c([C@@H]3O[C@H](CO)[C@@H](O)[C@H](O)[C@H]3O)c(O)cc(O)c12 ?
50.7

---

tested on: HepG2; assay: Antiproliferative activity against human HepG2 cells after 72 hrs by CelTiter-Glo assay; assay type: functional, cell-based; conditions: HepG2, 72 h
Below, each entry is listed with its recorded EC50.

- structure notation: "COc1ccc(-c2cc(=O)c3c(OC)cc(OC)cc3[nH]2)cc1"
  EC50: "> 31.2 µM"
- structure notation: "COc1cc(OC)c2c(=O)cc(C(=O)Nc3ccc(Oc4cccnc4)cc3)[nH]c2c1"
  EC50: "> 32.2 µM"

What value of EC50 has been reported for the following compound? C=CCNC(=O)Nc1ccc2c(c1)c(=O)cc(C(=O)OC)n2C(=O)NCC=C
> 43.3 µM

What value of EC50 has been reported for the following compound? COc1ccc(-c2cc(=O)c3c(OC)cc(OC)cc3n2S(=O)(=O)c2cc(Cl)cc(Cl)c2O)cc1
> 37.9 µM

---

test system: BJ; test: Antiproliferative activity against human BJ cells after 72 hrs by CelTiter-Glo assay; assay type: cell-based
pEC50: −log10 of the molar value.
outcome measure: pEC50

- structure notation: "COC(=O)c1cc(=O)c2cc(NC(=O)Nc3ccc4c(c3)OCCO4)ccc2[nH]1"
  measured on: "BJ"
  measured value: "< 4.58"
- structure notation: "COc1ccc(-c2cc(=O)c3c(OC)cc(OC)cc3n2S(=O)(=O)c2ccc(F)cc2)cc1"
  measured on: "BJ"
  measured value: "< 4.18"
- structure notation: "COc1ccc(-c2c(Br)c(=O)c3c(OC)cc(OC)cc3n2S(=O)(=O)c2ccc(OC)cc2)cc1"
  measured on: "BJ"
  measured value: 4.30
- structure notation: "COc1ccc(-c2[nH]c3cc(OC)cc(OC)c3c(=O)c2I)cc1"
  measured on: "BJ"
  measured value: "< 4.06"
- structure notation: "COC(=O)c1cc(=O)c2cc(NC(=O)Nc3ccc4c(c3)CCN4C)ccc2[nH]1"
  measured on: "BJ"
  measured value: "< 4.06"
- structure notation: "COc1ccc(-c2cc(=O)c3c(OC)cc(OC)cc3n2S(=O)(=O)c2ccc(C=O)cc2)cc1"
  measured on: "BJ"
  measured value: "< 4.46"
- structure notation: "COC(=O)c1cc(=O)c2cc(NC(=O)NCCc3cccs3)ccc2[nH]1"
  measured on: "BJ"
  measured value: "< 4.71"
- structure notation: "COc1ccc(-c2cc(=O)c3c(OC)cc(OC)cc3n2S(=O)(=O)c2c(C(C)C)cc(C(C)C)cc2C(C)C)cc1"
  measured on: "BJ"
  measured value: "< 3.47"
- structure notation: "COC(=O)c1cc(=O)c2cc(NC(=O)NC3c4ccccc4-c4ccccc43)ccc2[nH]1"
  measured on: "BJ"
  measured value: "< 4.62"
- structure notation: "COC(=O)c1cc(=O)c2cc(NC(=O)Nc3ccc(C(F)(F)F)cc3)ccc2[nH]1"
  measured on: "BJ"
  measured value: "< 4.90"

What value of pEC50 has been reported for the following compound? Nc1ccc2nc(C(=O)O)cc(O)c2c1
3.43

What value of pEC50 has been reported for the following compound? COC(=O)c1cc(=O)c2cc(NC(=O)NCc3ccccc3)ccc2[nH]1
< 4.71

What value of pEC50 has been reported for the following compound? COc1cc(OC)c2c(=O)cc(-c3ccc4c(c3)OCO4)[nH]c2c1
< 4.26

Values compiled from ChEMBL document CHEMBL4196009.
